Just for reference, patent US11702422B2 is where these values come from.

So I've got a bunch of compounds here, and I need their pIC50 values.
Target: IL-17A(FLAG-Tagged): IL-17RA(His-Tagged) (Homo sapiens, UniProt Q16552, K93Q)
Sequence (Q16552 with tags, fused parts or gaps K93Q): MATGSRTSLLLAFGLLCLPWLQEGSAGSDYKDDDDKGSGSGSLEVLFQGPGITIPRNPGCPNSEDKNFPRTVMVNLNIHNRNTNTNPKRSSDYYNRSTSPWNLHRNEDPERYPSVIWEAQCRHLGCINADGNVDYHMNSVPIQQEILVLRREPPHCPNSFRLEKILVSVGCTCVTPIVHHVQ
Experiment: IL-17A(FLAG-Tagged): IL-17RA(His-Tagged) Binding Disruption Eu-HTRF Assay
Settings: IL-17A/IL-17RA binding disruption, simple average if tested more than once
One number for each entry, as −log10 of the molar value.

Use these answered entries as a reference point.
• COc1cc(C(=O)N[C@H](c2cn3ncc([C@H](NC(=O)CCC(F)(F)F)C4CC4)cc3n2)C2CCC(F)(F)CC2)ccn1 = 6.96
• Cc1nonc1C(=O)N[C@H](c1cn2ncc([C@H](NC(=O)[C@H](F)[C@@H](C)C(F)(F)F)C3CC3)cc2n1)C1CCC(F)(F)CC1 (relative stereo) = 6.92

Next item in the queue.
The reported value for [2H]C([2H])([2H])n1nccc1C(=O)N[C@H](c1cn2ncc(C(NC(=O)CCC(F)(F)F)C3CCC3)cc2n1)C1CCC(F)(F)CC1 (single isomer, unassigned) in terms of pIC50 is 7.19

* * *

Molecular target: IL-17A(FLAG-Tagged): IL-17RA(His-Tagged) (Homo sapiens, UniProt Q16552, K93Q)
Assay: IL-17A(FLAG-Tagged): IL-17RA(His-Tagged) Binding Disruption Eu-HTRF Assay
Settings: IL-17A/IL-17RA binding disruption, simple average if tested more than once
Recorded Metric: IC50 (nM)
Answers are plain numbers, in nM.

Use these answered entries as a reference point.
• O=C(CCC(F)(F)F)N[C@@H](c1cnn2cc([C@@H](NC(=O)[C@@H]3C[C@H]3F)C3CCC(F)(F)CC3)nc2c1)C1CC1 [Example 90] = 1500
• COc1cncc(C(=O)N[C@H](c2cn3ncc([C@H](NC(=O)CCC(F)(F)F)C4CC4)cc3n2)C2CCC(F)(F)CC2)n1 [Example 215] = 2000

The reported value for [2H]C([2H])([2H])n1nccc1C(=O)N[C@H](c1cn2ncc([C@@H](NC(=O)CC3CC(F)(F)C3)C3CCC3)cc2n1)C1CCC(F)(F)CC1 (relative stereo) [Example 498] in terms of IC50 is 380

* * *

So I've got a bunch of molecules here, and I need their pIC50 values.
System: IL-17A-induced G-CSF production in human normal keratinocyte (NHK)
Assay: NHK Assay: IL-17A-induced G-CSF production in human normal keratinocytes
Assay type: cell-based
Details: adult normal human keratinocytes, IL-17A 5 ng/mL, 24 h, simple average if tested more than once
Answers are plain numbers, as −log10 of the molar value.

* Cc1nonc1C(=O)N[C@H](c1cn2ncc([C@H](NC(=O)CC3CC(F)(F)C3(F)F)C3CC3)cc2n1)C1CCC(F)(F)CC1 (single isomer, unassigned) | 6.52
* O=C(CCC(F)(F)F)NC(c1cnn2cc([C@@H](NC(=O)c3ccccc3)C3CCC(F)(F)CC3)nc2c1)C1CC1 (single isomer, unassigned) | 6.74
* COCC(NC(=O)CC1CC(F)(F)C1)c1cnn2cc([C@@H](NC(=O)c3nonc3C3CC3)C3CCC(F)(F)CC3)nc2c1 (single isomer, unassigned) [Example 525] | 7.38

Next item in the queue.
The reported value for O=C(CC1CC(F)(F)C1)NC(c1cnn2cc([C@@H](NC(=O)c3nonc3C3CC3)C3CCC(F)(F)CC3)nc2c1)C(F)F (single isomer, unassigned) [Example 517] in terms of pIC50 is 7.35

* * *

Biological target: IL-17A(FLAG-Tagged): IL-17RA(His-Tagged) (Homo sapiens, UniProt Q16552, K93Q)
Experiment: IL-17A(FLAG-Tagged): IL-17RA(His-Tagged) Binding Disruption Eu-HTRF Assay
Settings: IL-17A/IL-17RA binding disruption, simple average if tested more than once
Lab note: anything with IC50 below 100 nM is marked label 1; values at 100 nM or higher are marked label 0.

Examples from the recorded data:
* N#Cc1ccc(C(=O)N[C@H](c2cn3ncc([C@H](NC(=O)CCC(F)(F)F)C4CC4)cc3n2)C2CCC(F)(F)CC2)cc1 | label 0
* O=C(CCC(F)F)N[C@@H](c1cnn2cc([C@@H](NC(=O)c3nonc3OCC(F)F)C3CCC(F)(F)CC3)nc2c1)C1CC1 | label 1
* Cc1nonc1C(=O)N[C@H](c1cn2ncc([C@H](NC(=O)CC(C)C(F)F)C3CC3)cc2n1)C1CCC(F)(F)CC1 (single isomer, unassigned) [Example 264] | label 1

Lab log: compare recorded IC50 with 100 nM; is it strictly lower for `Cc1nonc1C(=O)N[C@@H](CC(C)(C)C(F)(F)F)c1cn2ncc([C@H](NC(=O)CC3CC(F)(F)C3)C3CC3)cc2n1` ? label 0

Lab log: compare recorded IC50 with 100 nM; is it strictly lower for `CC(C)n1nccc1C(=O)N[C@H](c1cn2ncc([C@H](NC(=O)CC3(C(F)(F)F)CC3)C3CC3)cc2n1)C1CCC(F)(F)CC1` ? label 0

* * *

Biological target: IL-17A(FLAG-Tagged): IL-17RA(His-Tagged) (Homo sapiens, UniProt Q16552, K93Q)
Assay: IL-17A(FLAG-Tagged): IL-17RA(His-Tagged) Binding Disruption Eu-HTRF Assay
Details: IL-17A/IL-17RA binding disruption, simple average if tested more than once
Recorded Metric: log10 of IC50 (log10 of the value in nM)
Values reflect log10 of reported IC50 (nM).

Use these answered entries as a reference point.
* CC(C)n1nccc1C(=O)N[C@H](c1cn2ncc([C@H](NC(=O)CC(C)C(F)(F)F)C3CC3)cc2n1)C1CCC(F)(F)CC1 (single isomer, unassigned) [Example 121] | 1.94
* O=C(CCC(F)(F)F)N[C@@H](c1cnn2cc([C@@H](NC(=O)c3ccnc(CC(F)(F)F)c3)C3CCC(F)(F)CC3)nc2c1)C1CC1 | 2.08
* CC(C)c1cc(C(=O)N[C@H](c2cn3ncc([C@H](NC(=O)CCC(F)(F)F)C4CC4)cc3n2)C2CCC(F)(F)CC2)ncn1 | 2.18

Please supply log10 of IC50 for each of the following items, keeping them in order.
1. O=C(CCC(F)(F)F)N[C@@H](c1cnn2cc([C@@H](NC(=O)c3ccnn3C(CF)CF)C3CCC(F)(F)CC3)nc2c1)C1CC1
2. CC(C)n1nccc1C(=O)N[C@H](c1cn2ncc([C@H](NC(=O)COCC(F)F)C3CC3)cc2n1)C1CCC(F)(F)CC1
3. O=C(CCC(F)(F)F)N[C@@H](c1cnn2cc([C@@H](NC(=O)C3CC34CCC4)C3CCC(F)(F)CC3)nc2c1)C1CC1 (some centres unmarked)

[2.04, 2.15, 2.38]

Please supply log10 of IC50 for each of the following items, keeping them in order.
1. O=C(CCC(F)(F)F)N[C@@H](c1cnn2cc([C@@H](NC(=O)c3cncc(C4CC4)c3)C3CCC(F)(F)CC3)nc2c1)C1CC1
2. O=C(CCC(F)(F)F)N[C@@H](c1cnn2cc([C@@H](NC(=O)c3cccc(C(F)F)c3)C3CCC(F)(F)CC3)nc2c1)C1CC1
3. CC(C)(O)Cc1nonc1C(=O)N[C@H](c1cn2ncc([C@H](NC(=O)CC3CC(F)(F)C3)C3CC3)cc2n1)C1CCC(F)(F)CC1
4. CC(C)n1nccc1C(=O)N[C@H](c1cn2ncc([C@H](NC(=O)COC3CC3)C3CC3)cc2n1)C1CCC(F)(F)CC1
5. Cc1nonc1C(=O)N[C@H](c1cn2ncc([C@H](NC(=O)CC(C)C(F)F)C3CC3)cc2n1)C1CCC(F)(F)CC1 (single isomer, unassigned) [Example 265]
6. CC(C)c1conc1C(=O)N[C@H](c1cn2ncc([C@H](NC(=O)CCC(F)(F)F)C3CC3)cc2n1)C1CCC(F)(F)CC1
7. O=C(CCC(F)(F)F)N[C@@H](c1cnn2cc([C@@H](NC(=O)c3ccnc(OCC(F)F)c3)C3CCC(F)(F)CC3)nc2c1)C1CC1
8. CC(C)(O)c1nonc1C(=O)N[C@H](c1cn2ncc([C@H](NC(=O)CCC(F)(F)F)C3CC3)cc2n1)C1CCC(F)(F)CC1

1. 1.76
2. 1.61
3. 2.30
4. 2.04
5. 2.32
6. 1.74
7. 1.65
8. 2.15

Please supply log10 of IC50 for each of the following items, keeping them in order.
1. CC(C)n1nccc1C(=O)N[C@H](c1cn2ncc(C(CC3CCC3)NC(=O)CC3CC(F)(F)C3)cc2n1)C1CCC(F)(F)CC1 (single isomer, unassigned)
2. O=C(CCC(F)(F)F)N[C@@H](c1cnn2cc([C@@H](NC(=O)c3conc3C3COC3)C3CCC(F)(F)CC3)nc2c1)C1CC1
3. O=C(CCC(F)(F)F)N[C@@H](c1cnn2cc([C@@H](NC(=O)c3cncc(C(F)(F)F)n3)C3CCC(F)(F)CC3)nc2c1)C1CC1
4. [2H]C([2H])([2H])C([2H])([2H])n1nccc1C(=O)N[C@H](c1cn2ncc(C(CC)NC(=O)CC3CC(F)(F)C3)cc2n1)C1CCC(F)(F)CC1 (single isomer, unassigned)
5. O=C(CCC(F)F)N[C@@H](c1cnn2cc([C@@H](NC(=O)c3nonc3C3CC3)C3CCC(F)(F)CC3)nc2c1)C1CC1
6. Cc1nonc1C(=O)N[C@H](c1cn2ncc(C(NC(=O)CCC(F)(F)F)C(F)F)cc2n1)C1CCC(F)(F)CC1 (single isomer, unassigned)

1: 1.96; 2: 2.00; 3: 2.79; 4: 2.30; 5: 1.85; 6: 3.28

Please supply log10 of IC50 for each of the following items, keeping them in order.
1. O=C(CCC(F)(F)F)N[C@@H](c1cnn2cc([C@@H](NC(=O)c3cnn(CC4CC(F)(F)C4(F)F)n3)C3CCC(F)(F)CC3)nc2c1)C1CC1 (some centres unmarked)
2. CC(C)n1nccc1C(=O)N[C@H](c1cn2ncc([C@H](NC(=O)CC34CC(F)(C3)C4)C3CC3)cc2n1)C1CCC(F)(F)CC1
3. CC(C)n1nccc1C(=O)N[C@H](c1cn2ncc([C@H](NC(=O)COC3CC(F)(F)C3)C3CC3)cc2n1)C1CCC(F)(F)CC1

2.00
2.20
2.00
